TIMS collision cross section in N2 listing for selected molecules.
- test-name: TIMS collision cross section in N2 (TIMS CCS N2); higher = larger gas-phase ion size
- condition-notes: ion species: [M-H]-; drift gas: N2 (99.4% N2, 0.6% O2); calibration: Stow et al. 2017 values for Agilent ESI-L Low Concentration Tune Mix; ionization: negative ESI
Entry rule: numbers only, all in Å².

Here's what some known entries look like.
COc1ccc(C2CC(=O)c3c(O)cc(O)cc3O2)cc1OC (stereo not drawn) [5,7-dihydroxy-3',4'-dimethoxy-flavanone]; 175.95
CC1(C)[C@@H](O[C@H]2O[C@H](C(=O)O)[C@@H](O)[C@H](O)[C@H]2O[C@@H]2O[C@H](C(=O)O)[C@@H](O)[C@H](O)[C@H]2O)CC[C@]2(C)[C@H]3C(=O)C=C4[C@@H]5C[C@@](C)(C(=O)O)CC[C@]5(C)CC[C@@]4(C)[C@]3(C)CC[C@@H]12; 279.43
CC(C)=CCc1c(O)cc(O)c2c1O[C@H](c1ccc(O)cc1)CC2=O; 183.54

Consider the molecule Oc1ccc(/C=C/c2cc(O)cc(O)c2)cc1 and give its measured TIMS collision cross section in N2.
157.41

Name the reported TIMS collision cross section in N2 value associated with the molecule CCCCCCCCCCCCCC(=O)O
162.69

TIMS collision cross section in N2 for COc1cc(-c2cc(=O)c3c(O)c(OC)c(O)cc3o2)cc(OC)c1O [5,7,4'-trihydroxy-6,3',5'-trimethoxyflavone] ?
183.59

# TIMS collision cross section in N2 lookup, item COc1cccc(-c2cc(=O)c3ccc(O)cc3o2)c1 [7-Hydroxy-3'-methoxyflavone]
165.22

# input molecule: O=C(CCc1ccc(O)c(O)c1)c1c(O)cc(O)c([C@@H]2O[C@H](CO)[C@@H](O)[C@H](O)[C@H]2O)c1O ; wanted: its TIMS collision cross section in N2
194.21

Please report the recorded TIMS collision cross section in N2 for O=c1cc(-c2ccc(O)cc2)oc2cc(O)c(O)c(O)c12 .
159.52
